target: UniProt:Q9ULC5; assay: Human ACSL5 coupled enzyme Amplex Red assay; assay type: biochemical; details: read-out: hACSL5 IC50
Sequence (Q9ULC5 33-683): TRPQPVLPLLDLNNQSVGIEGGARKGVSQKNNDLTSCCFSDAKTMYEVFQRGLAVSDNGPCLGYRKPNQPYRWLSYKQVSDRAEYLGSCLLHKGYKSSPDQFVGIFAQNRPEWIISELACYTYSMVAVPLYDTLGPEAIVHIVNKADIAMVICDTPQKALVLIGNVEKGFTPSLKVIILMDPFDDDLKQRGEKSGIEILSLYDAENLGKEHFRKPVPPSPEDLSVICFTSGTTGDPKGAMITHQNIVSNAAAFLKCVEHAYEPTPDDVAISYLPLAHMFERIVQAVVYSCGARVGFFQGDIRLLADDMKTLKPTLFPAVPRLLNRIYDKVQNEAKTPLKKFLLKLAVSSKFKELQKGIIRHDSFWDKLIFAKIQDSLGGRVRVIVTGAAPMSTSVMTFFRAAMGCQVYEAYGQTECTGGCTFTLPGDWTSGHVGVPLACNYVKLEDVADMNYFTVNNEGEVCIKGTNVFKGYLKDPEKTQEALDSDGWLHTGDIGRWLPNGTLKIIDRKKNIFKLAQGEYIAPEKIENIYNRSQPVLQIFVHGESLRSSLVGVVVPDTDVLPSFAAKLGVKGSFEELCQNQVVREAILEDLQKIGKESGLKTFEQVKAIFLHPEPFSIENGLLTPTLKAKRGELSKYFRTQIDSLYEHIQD
QUANTITY_KIND: IC50

IC50 measured on CC[C@@H](Oc1ccc(C(=O)NS(=O)(=O)N2CCN(C)[C@H](C)C2)c(F)c1F)c1ccc(OCC2CC2)cn1 = < 100 nM

IC50 reading for CC(Oc1ccc(C(=O)NS(=O)(=O)CCN)c(Cl)c1Cl)c1cccc(Oc2ccccc2)c1 (stereo not shown) : 100 to 500 nM

// field: IC50; key: CC[C@@H](Oc1ccc(C(=O)NS(=O)(=O)C(C)(C)CN(C)C)c(F)c1F)c1ccc(Oc2ccccn2)cn1 ; value = < 100 nM

Entry CC[C@@H](Oc1ccc(C(=O)NS(=O)(=O)c2ccc(OC3CCN(CCOC)CC3)cc2)c(F)c1F)c1ccc(OCC2CC2)cn1 — recorded IC50 = < 100 nM

For every item in the list below, what is its measured IC50?
1. CC[C@@H](Oc1ccc(C(=O)NS(=O)(=O)N2C[C@@H](C)N(C)[C@@H](C)C2)c(F)c1F)c1ccc(OCC2CC2)cn1
2. CC[C@@H](Oc1ccc(C(=O)NS(=O)(=O)N2CCN(C3CCC3)CC2)c(F)c1F)c1ccc(Oc2ccccn2)cn1
3. CC(Oc1ccc(C(=O)NS(=O)(=O)c2ccc(CN)cc2)c(F)c1F)c1cccc(OC2CCCC2)c1 (stereo not shown)
4. CC(Oc1ccc(C(=O)NS(=O)(=O)c2cnn(CCN(C)C)c2)c(F)c1F)c1cccc(OCC2CC2)c1 (stereo not shown)

### Response
1: < 100 nM; 2: < 100 nM; 3: 100 to 500 nM; 4: 100 to 500 nM

Quick request: IC50 for each listed item, please.
1. CC[C@@H](Oc1ccc(C(=O)NS(=O)(=O)N2CCN(C)CC2(C)C)c(F)c1F)c1ccc(Oc2ccccn2)cn1
2. CC[C@@H](Oc1ccc(C(=O)NS(=O)(=O)N2C[C@@H]3C[C@H]2CN3C)c(F)c1F)c1ccc(OCC2CC2)cn1
3. CC[C@@H](Oc1ccc(C(=O)NS(=O)(=O)c2ccc(OCCN3CCCC3)nc2)c(F)c1F)c1ccc(OCC2CC2)cn1

### Response
1: < 100 nM; 2: 100 to 500 nM; 3: < 100 nM

Lab note: each compound below needs its IC50 filled in.
1. CC[C@@H](Oc1ccc(C(=O)NS(=O)(=O)N2CCN(C3CCCC3)CC2)c(F)c1F)c1ccc(OCC2CC2)cn1
2. CC[C@@H](Oc1ccc(C(=O)NS(=O)(=O)N2CCC(OC3CCN(CC(C)(C)O)CC3)CC2)c(F)c1F)c1ccc(OCC2CC2)cn1
3. CC[C@@H](Oc1ccc(C(=O)NS(=O)(=O)N2CCC(OC3CCN(CC4CC4)CC3)CC2)c(F)c1F)c1ccc(OCC2CC2)cn1
4. CC[C@@H](Oc1ccc(C(=O)NS(=O)(=O)N2CCN(C)[C@@H](C)C2)c(F)c1F)c1ccc(OCC2CC2)cn1

### Response
1. < 100 nM
2. < 100 nM
3. < 100 nM
4. < 100 nM

Note to self: IC50 recorded for CC[C@@H](Oc1ccc(C(=O)NS(=O)(=O)N2CCN(CC(C)(C)O)CC2)c(F)c1F)c1ccc(Oc2ccccn2)cn1 was < 100 nM
